Hey, just so you know, these numbers are from paper PMC4369446.

target: T1, SLC1A1 peptide on HLA-A*02:01 (human); experiment: cytokine release
T1 peptide: VLTGLAIHSI
recorded-metric: binding result

[[record]]
binder = "SIG35α / TRBV27 Cl.1599 (TCR) alpha TRAV12-2 J35 CDR3: CAVSIGFGNVL beta TRBV27 TRBJ1-1 CDR3: CASSFLGAMAEAFF"
recorded_metric = "binding result"
observed = "no recognition"

[[record]]
binder = "SIG35α / TRBV27 Cl.1593 (TCR) alpha TRAV12-2 J35 CDR3: CAVSIGFGNVL beta TRBV27 TRBJ1-5 CDR3: CASGNNQPQHF"
recorded_metric = "binding result"
observed = "no recognition"

[[record]]
binder = "SIG35α / TRBV27 Cl.523 (TCR) alpha TRAV12-2 J35 CDR3: CAVSIGFGNVL beta TRBV27 TRBJ2-7 CDR3: CASGSYEQYF"
recorded_metric = "binding result"
observed = "no recognition"

